# study target: T1, corticotropin-releasing hormone (CRH) peptide (human and mouse (same sequence), not fully specified)
# T1 peptide: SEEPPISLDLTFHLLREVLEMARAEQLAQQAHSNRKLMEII
# method: cell-based or functional assay
Here, each record is paired with measured hCRHR1 Luciferase Reporter Assay IC50 data.
Entry rule: numbers only, all in nM.

{"binder": "PR302309-13 (antibody, human IgG1, kappa, V domains shown) VH: QVQLVQSGSELKKPGASVKVSCKASGYTFTNYGMNWVRQAPGQGLEWMGWINTYTGEPIYTDDFKGRFVFSLDTSVSTAYLQISSLKAEDTAVYYCARSTMITTGGVFAYWGQGTLVTVSS VL: DVLMAQTPLSLPVSLGDQASISCRSSQTIVHSDGNTYLEWYLQKPGQSPKLLIYKVSNRFSGVPDRFSGSGSGTDFTLKISRVEAEDLGVYYCFQGSHVPWTFGGGTKLEIKR", "number": 7.23}

Memo: PR302309-3 (antibody, human IgG1, kappa, V domains shown) VH: QIQLVQSGPELKKPGETVKISCKASGYTFTNYGMNWVKQAPGKVLKWMGWINTYTGEPIYTDDFKGRFAFSLETSASTAYLQINNLKNEDTATYFCSRSTMITTGGVFAYWGQGTLVTVSA VL: DIVMTQTPLSLSVTPGQPASISCRSSQTIVHSDGNTYLEWYLQKPGQSPQLLIYKVSNRFSGVPDRFSGSGSGTDFTLKISRVEAEDVGVYYCFQGSHVPWTFGGGTKVEIKR , reported hCRHR1 Luciferase Reporter Assay IC50: 2.22

Memo: PR302309-6 (antibody, human IgG1, kappa, V domains shown) VH: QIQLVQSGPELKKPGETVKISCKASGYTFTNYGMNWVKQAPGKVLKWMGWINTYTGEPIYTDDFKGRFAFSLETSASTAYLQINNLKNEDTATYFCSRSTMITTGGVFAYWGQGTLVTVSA VL: DVVMTQTPLSSPVTLGQPASISCRSSQTIVHSDGNTYLEWYQQRPGQPPRLLIYKVSNRFSGVPDRFSGSGAGTDFTLKISRVEAEDLGVYYCFQGSHVPWTFGGGTKVEIKR , reported hCRHR1 Luciferase Reporter Assay IC50: 1.08

Memo: PR302309-11 (antibody, human IgG1, kappa, V domains shown) VH: QIQLVQSGSELKKPGASVKVSCKASGYTFTNYGMNWVRQAPGQGLEWMGWINTYTGEPIYTDDFKGRFVFSLDTSVSTAYLQISSLKAEDTAVYYCSRSTMITTGGVFAYWGQGTLVTVSS VL: DIVMTQTPLSSPVTLGQPASISCRSSQTIVHSDGNTYLEWLQQRPGQPPRLLIYKVSNRFSGVPDRFSGSGAGTDFTLKISRVEAEDVGVYYCFQGSHVPWTFGGGTKVEIKR , reported hCRHR1 Luciferase Reporter Assay IC50: 2.12

Memo: PR302309-19 (antibody, human IgG1, kappa, V domains shown) VH: QIQLVQSGAEVKKPGASVKVSCKASGYTFTNYGMNWVRQAPGQRLEWMGWINTYTGEPIYTDDFKGRVTITLDTSASTAYMELSSLRSEDTAVYYCSRSTMITTGGVFAYWGQGTLVTVSS VL: DVVMTQSPLSLPVTLGQPASISCRSSQTIVHSDGNTYLEWYQQRPGQSPRLLIYKVSNRFSGVPDRFSGSGSGTDFTLKISRVEAEDLGVYYCFQGSHVPWTFGGGTKVEIKR , reported hCRHR1 Luciferase Reporter Assay IC50: 4.83
